Measurement Protocol: Whole blood concentrations after IP administration to mice (LC-MS/MS)
Assay type: in vivo
Run Conditions: mouse, whole blood, intraperitoneal, 10 mg/kg, 10 mg/kg IP QD x 3 days; Day 3, 24.0 hrs; Animal ID 4-6; read-out: Concentration in Mouse Whole Blood, individual animals
Observed Property: concentration at 24 h (ng/mL)
Give the number; ng/mL is assumed, so skip it.

q: Answer with the recorded concentration at 24 h for the molecule listed here: CO[C@H]1C[C@@H]2CC[C@@H](C)[C@@](O)(O2)C(=O)C(=O)N2CCCC[C@H]2C(=O)O[C@H]([C@H](C)C[C@@H]2C[C@@H]3C[C@H]2C[C@H]3O)CC(=O)[C@H](C)/C=C(\C)[C@@H](O)[C@@H](OC)C(=O)[C@H](C)C[C@H](C)/C=C/C=C/C=C/1C [Formula I, 37R-hydroxynorbornylrapamycin]
a: 292

* * *

Measurement Protocol: Whole blood concentrations after IP administration to mice (LC-MS/MS)
Type: in vivo
Run Conditions: mouse, whole blood, intraperitoneal, 10 mg/kg, 10 mg/kg IP QD x 3 days; Day 3, 2.00 hrs
Observed Property: concentration at 2 h (ng/mL)
Report the value in ng/mL with no unit label.

q: // Input: CO[C@H]1C[C@@H]2CC[C@@H](C)[C@@](O)(O2)C(=O)C(=O)N2CCCC[C@H]2C(=O)O[C@H]([C@H](C)C[C@@H]2C[C@@H]3C[C@H]2C[C@H]3O)CC(=O)[C@H](C)/C=C(\C)[C@@H](O)[C@@H](OC)C(=O)[C@H](C)C[C@H](C)/C=C/C=C/C=C/1C [Formula I, 37R-hydroxynorbornylrapamycin] . Output its concentration at 2 h only.
a: 1900

* * *

Measurement Protocol: Whole blood concentrations after IP administration to mice (LC-MS/MS)
Format: in vivo
Run Conditions: mouse, whole blood, intraperitoneal, 10 mg/kg, 10 mg/kg IP QD x 3 days; Day 3, 1.00 hrs; read-out: Concentration in Mouse Whole Blood, Mean
Observed Property: concentration at 1 h (ng/mL)
// units = ng/mL; emit number, no label

q: In one line, give reported concentration at 1 h of the entry CO[C@H]1C[C@@H]2CC[C@@H](C)[C@@](O)(O2)C(=O)C(=O)N2CCCC[C@H]2C(=O)O[C@H]([C@H](C)C[C@@H]2C[C@@H]3C[C@H]2C[C@H]3O)CC(=O)[C@H](C)/C=C(\C)[C@@H](O)[C@@H](OC)C(=O)[C@H](C)C[C@H](C)/C=C/C=C/C=C/1C [Formula I, 37R-hydroxynorbornylrapamycin] .
a: 3200

* * *

Measurement Protocol: Brain concentrations after IP administration to mice (LC-MS/MS of brain homogenates)
Assay type: in vivo
Run Conditions: mouse, brain, ip, 10 mg/kg, Group 2 (10 mg/kg) IP QD x 3 days; Day 3, 24.0 hrs
Observed Property: concentration at 24 h (ng/g)
The answer is to be given in ng/g; state only the numeric part.

q: Answer with the recorded concentration at 24 h of CO[C@H]1C[C@@H]2CC[C@@H](C)[C@@](O)(O2)C(=O)C(=O)N2CCCC[C@H]2C(=O)O[C@H]([C@H](C)C[C@@H]2C[C@@H]3C[C@H]2C[C@H]3O)CC(=O)[C@H](C)/C=C(\C)[C@@H](O)[C@@H](OC)C(=O)[C@H](C)C[C@H](C)/C=C/C=C/C=C/1C [Formula I, 37R-hydroxynorbornylrapamycin] only.
a: 193
